Target Under Test: HDAC6 human recombinant (Homo sapiens (Human), UniProt Q9UBN7)
Sequence (Q9UBN7 whole entry): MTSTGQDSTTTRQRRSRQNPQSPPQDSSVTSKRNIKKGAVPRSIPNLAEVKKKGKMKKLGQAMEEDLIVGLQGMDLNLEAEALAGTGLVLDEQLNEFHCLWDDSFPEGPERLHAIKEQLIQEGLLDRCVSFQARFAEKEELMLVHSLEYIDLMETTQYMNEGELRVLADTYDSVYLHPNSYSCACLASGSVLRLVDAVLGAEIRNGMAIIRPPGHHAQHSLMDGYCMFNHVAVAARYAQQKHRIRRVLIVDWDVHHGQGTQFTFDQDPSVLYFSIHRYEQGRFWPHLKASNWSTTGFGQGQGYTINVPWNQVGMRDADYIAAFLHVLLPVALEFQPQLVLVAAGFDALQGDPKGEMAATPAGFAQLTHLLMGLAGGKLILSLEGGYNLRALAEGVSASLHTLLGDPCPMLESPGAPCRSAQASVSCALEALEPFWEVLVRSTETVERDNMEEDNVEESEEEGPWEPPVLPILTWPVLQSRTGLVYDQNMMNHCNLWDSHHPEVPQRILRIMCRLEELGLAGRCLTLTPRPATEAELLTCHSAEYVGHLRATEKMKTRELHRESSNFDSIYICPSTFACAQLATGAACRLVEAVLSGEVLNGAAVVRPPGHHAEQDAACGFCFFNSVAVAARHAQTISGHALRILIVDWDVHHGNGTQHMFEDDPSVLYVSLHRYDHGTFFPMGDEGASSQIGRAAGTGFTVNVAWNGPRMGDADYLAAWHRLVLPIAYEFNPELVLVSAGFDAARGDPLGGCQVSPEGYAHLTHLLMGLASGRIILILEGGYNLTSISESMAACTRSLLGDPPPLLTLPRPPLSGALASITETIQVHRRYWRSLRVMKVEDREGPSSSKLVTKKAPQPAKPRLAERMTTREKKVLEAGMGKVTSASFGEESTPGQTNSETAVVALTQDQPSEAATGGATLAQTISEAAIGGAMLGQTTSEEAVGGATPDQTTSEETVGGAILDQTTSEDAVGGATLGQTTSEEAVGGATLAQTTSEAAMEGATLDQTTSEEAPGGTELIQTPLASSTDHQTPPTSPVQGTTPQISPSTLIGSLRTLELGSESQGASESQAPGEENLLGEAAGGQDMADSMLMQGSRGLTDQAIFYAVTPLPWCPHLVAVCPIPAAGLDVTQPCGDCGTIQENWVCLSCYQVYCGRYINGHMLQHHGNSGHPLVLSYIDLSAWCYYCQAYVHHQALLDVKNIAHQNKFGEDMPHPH
Measurement Notes: HDAC enzyme activity inhibition (in vitro), HDAC6 assay
Measurement Conditions: samples at 0.1, 1, 10, 100 and 1000 nM; 37° C. 60 minutes; fluorescence Ex 390, Em 460
Recorded Endpoint: IC50 (µM)

| Compound Smiles | Observed Value |
| --- | --- |
| CCN1CCC(c2ccc3c(c2)C(=O)N(Cc2ccc(-c4nnc(C(F)F)o4)cn2)C(=O)C3(C)C)CC1 | 0.02 |
| CC1(C)C(=O)N(Cc2ccc(-c3nnc(C(F)F)o3)cn2)C(=O)c2ccc(C3CCN(C4CCC4)CC3)cc21 | 0.025 |
| CC1(C)C(=O)N(Cc2ccc(-c3nnc(C(F)F)o3)cn2)C(=O)c2ccc(N3CCN(CC(F)(F)C(F)(F)C(F)(F)F)CC3)cc21 | 0.535 |
